System: Trypanosoma cruzi
Assay: Trypanosoma cruzi phosphomannomutase and mannose-1-phosphate guanylyltransferase assay
Type: functional
Parameters: scale not given: direction of the effect not stated beside the values
Conditions: 10 µM
observed.property: Percent Effect (%)

compound	unit.spec	quantitative.result
Cn1ccnc1CN1CCCN(C(=O)c2ccc3c(c2)COC3)CC1	%	-6.44
CCOCC1CN(S(=O)(=O)N(C)C)Cc2cnn(C)c21 (stereo unspecified)	%	-5.16
O=C(C1COCCO1)N1CCN(Cc2ccc3c(c2)CCO3)CC1 (stereo unspecified)	%	1.21
COc1cccc(CNC(=O)C(c2cccc(F)c2)N2CCOCC2)c1 (stereo unspecified)	%	2.82
CC1(C(=O)N2CCOCC2)CN(Cc2ccccc2F)CCO1 (stereo unspecified)	%	-4.13
CSCCC(CO)NC(=O)c1sc(-c2ccccc2Cl)nc1C (stereo unspecified)	%	-5.89
CC(OCC(F)(F)F)C(=O)N1CCN(S(C)(=O)=O)CC1 (stereo unspecified)	%	-3.92
COCCN1CCC(NCc2cccc(F)c2)C1 (stereo unspecified)	%	-5.24
CCc1ccc(CCC(=O)N2CCOCC2c2ncon2)cc1 (stereo unspecified)	%	-2.69
Cc1nc(C)n(CC2CCCN(CCNC(=O)OC(C)(C)C)C2)n1 (stereo unspecified)	%	1.67
Cc1nn(C)c(N2CCOCC2)c1CNCc1nccs1	%	9.4
O=S(=O)(NCC1CCOc2ccccc2C1)N1CCOCC1 (stereo unspecified)	%	3.83
COCc1c(C(=O)O)nnn1Cc1cccc(C(F)(F)F)c1	%	-4.13
CCCNC(=O)c1sc(Nc2ccc(Cl)cn2)nc1C	%	4.13
Cc1cc(C(=O)NC2CCCN(c3ccccc3)C2=O)on1 (stereo unspecified)	%	-0.0974
Cc1cc2c(cc1C)C(NCc1nnc3n1CCCCC3)CCCO2 (stereo unspecified)	%	6.94
